Below, each entry is listed alongside its reported IC50.
- Test target: Cbl-b (36-427 aa truncated form, N-terminus Avi-tag) (Homo sapiens (Human), UniProt Q13191)
- Sequence (Q13191 36-427): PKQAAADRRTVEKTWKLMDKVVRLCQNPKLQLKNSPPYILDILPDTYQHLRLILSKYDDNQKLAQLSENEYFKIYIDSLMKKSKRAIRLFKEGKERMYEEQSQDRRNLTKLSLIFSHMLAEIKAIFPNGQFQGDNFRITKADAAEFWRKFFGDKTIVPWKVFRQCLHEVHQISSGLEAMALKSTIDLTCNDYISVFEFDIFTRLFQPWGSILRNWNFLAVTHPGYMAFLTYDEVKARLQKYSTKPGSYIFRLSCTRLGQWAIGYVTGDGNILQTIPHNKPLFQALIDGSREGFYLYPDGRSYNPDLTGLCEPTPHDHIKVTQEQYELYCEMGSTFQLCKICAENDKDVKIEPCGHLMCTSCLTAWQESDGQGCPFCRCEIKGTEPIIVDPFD
- Test name: Cbl-b binding: TR-FRET displacement of BODIPY-FL probe

# Compound, IC50
rows = [
    ("CCNc1cc([C@]2(c3nncn3C)C[C@@H](C)C2)nc(N2Cc3c(cc(CN4CCC[C@H](C)C4)cc3C(F)(F)F)C2=O)n1 [Compound 114A]", "100 to 1000 nM"),
    ("CCNc1cc(C2(Cc3nncn3C)COC2)cc(N2Cc3c(cc(CN4CCC[C@H](CSC)C4)cc3C(F)(F)F)C2=O)n1", "5.01 to 20 nM"),
    ("C[C@H]1CCCN(Cc2cc3c(c(C(F)(F)F)c2)CN(c2cc(C4(Cc5nncn5C)COC4)cc(OCCOCCOCCOCCNC(=O)CCN4C(=O)C=CC4=O)n2)C3=O)C1", "1 to 5 nM"),
    ("CNCC(=O)Nc1cc(C2(Cc3nncn3C)COC2)cc(N2Cc3c(cc(CN4CCC[C@H](C)C4)cc3C(F)(F)F)C2=O)n1", "5.01 to 20 nM"),
    ("Cn1cnnc1CC1(c2cc(NCCC#N)nc(N3Cc4c(cc(CN5C[C@H]6CCC(O)C[C@H]6C5)cc4C(F)(F)F)C3=O)c2)COC1 (stereo partly drawn)", "1 to 5 nM"),
    ("CCNc1cc(C2(c3nncn3C)CC(C)C2)cc(N2Cc3c(cc(CN4CCC[C@H](C)C4)cc3[S+](C)[O-])C2=O)n1 (stereo partly drawn)", "100 to 1000 nM"),
]
